- subject of test: EcorOBP15-m1 (odorant binding protein) (Eupeodes corollae, UniProt A0A8F9RZG6, F82L)
- Construct: recombinant protein expressed in E. coli
- Sequence (A0A8F9RZG6 22-145, stated change not applied): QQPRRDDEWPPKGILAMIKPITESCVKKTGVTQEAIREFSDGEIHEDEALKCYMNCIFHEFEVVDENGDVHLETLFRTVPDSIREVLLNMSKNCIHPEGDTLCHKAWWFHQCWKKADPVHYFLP
- assay protocol: competitive fluorescence displacement of 1-NPN
quantity measured: Kd (µM)
Report the figure in µM without appending any unit label.

Challenge: Write down Kd measured for item CCCCCC(=O)OCC [ethyl hexanoate]
Response given: 7.4
